test: melting temperature; fluorescence melt of hairpins on a sequencing array, two-state fit, raised by 9.35 °C to match UV melts; conditions: sodium 0.088 M
# note: exactly 50 °C is not below, so it is Criterion not met; use Criterion met for Tm strictly under it

Input: Say whether its Tm is strictly beneath 50 °C. Entry: GCTTGTGGAAACATGAGC (((..((....))..)))
Output: Criterion met

Input: Just wondering, is Tm of GCGGGGTCCGC ((((...)))) below 50 °C?
Output: Criterion not met

Input: Does GTCAAGAAATTGAC (((((....))))) have Tm strictly under 50 °C?
Output: Criterion met

Input: Does GATCGTTTTTACGATC ((((((....)))))) have Tm strictly under 50 °C?
Output: Criterion not met

Input: Is Tm of GTCTGTTCGAAAGAAGAC (((..(((....)))))) strictly below 50 °C?
Output: Criterion met

Input: Does GATCGGTGATCCGATC ((((((....)))))) have Tm strictly under 50 °C?
Output: Criterion not met

Input: Regarding GCTGCAGGAAACCACAGC ((((..(....)..)))) , kindly confirm whether its Tm is beneath 50 °C.
Output: Criterion met

Input: Does GAAAGTGAAAACTTTC ((((((....)))))) have Tm strictly under 50 °C?
Output: Criterion met

Input: Decide: Tm of GCCTGGCGAAAGCCATGC ((.((((....)))).)) strictly below 50 °C?
Output: Criterion not met

Input: Report whether reported Tm is lower than 50 °C (strictly) for GCCCTGCGAAAGCACGGC (((.(((....))).)))
Output: Criterion not met

Input: Field: below-cutoff. Rule: recorded Tm strictly less than 50 °C. Subject: GGAGGCGAAAGCCCGTCC ((((((....)))..)))
Output: Criterion met

Input: Given GGGTCGGCGAAAGCCCCC (((..(((....)))))) , is recorded Tm strictly lower than 50 °C?
Output: Criterion met

Input: I'd appreciate it if you could check whether AAACTGAAAAGTTT (((((....))))) has Tm smaller than 50 °C.
Output: Criterion met

Input: Problem: For the sequence GACCGCGAAAGCGATGTC ((((((....)))..))) , is Tm under 50 °C?
Output: Criterion met

Input: Bench note: check whether GATCACTCTAGTGATC ((((((....)))))) shows Tm below 50 °C
Output: Criterion not met

Input: Hello, I'm reviewing records and need to know if Tm of GGCTAACCGAAAGGTGCC (((..(((....)))))) is below 50 °C. Could you check?
Output: Criterion not met

Input: Confirm or reject: Tm of GATCCGGTCCGGATC ((((((...)))))) lies strictly below 50 °C
Output: Criterion not met

Input: Consider the sequence GGGCTAGAAATAGCCC ((((((....)))))) . Is its Tm strictly less than 50 °C?
Output: Criterion not met

Input: Criterion: Tm strictly below 50 °C. Is it met by GTCCTCGAAAGAGCCGAC ((((((....)))..))) ?
Output: Criterion met

Input: Input GTGTGAGGAAACTCACGC (.(((((....))))).) ; condition: Tm strictly below 50 °C. Does it hold?
Output: Criterion not met

Input: Does TAGGAGAAATCCTA (((((....))))) have Tm strictly under 50 °C?
Output: Criterion met

Input: Check if Tm falls below 50 °C for GGAAGTGGAAACGTTTCC ((((..(....)..)))) .
Output: Criterion met
